Target: T1, CD40 ligand (UniProt P29965 108-261, limits assumed)
T1 sequence (looked up): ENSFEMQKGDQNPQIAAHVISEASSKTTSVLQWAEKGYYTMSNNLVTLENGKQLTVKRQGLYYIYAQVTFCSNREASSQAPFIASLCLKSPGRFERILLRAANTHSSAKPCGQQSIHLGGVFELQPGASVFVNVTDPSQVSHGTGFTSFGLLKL
Experiment: cell-based or functional assay
Positions of bridges follow the written chain, without caps; N, C: chain ends. Chains are numbered I, II in the order given. No end group written: not given here.
ENDPOINT_LABEL: EC50, inhibition of CD40L-induced CD86 expression on primary B-cells (nM)
Please give a number only; it is taken to be in nM.

Known EC50, inhibition of CD40L-induced CD86 expression on primary B-cells results, listed for orientation:
# BINDER, REPORTED_MEASUREMENT
rows = [
    ("LLLFFFSPPFSIFSFSLTTLS (Cys-to-Ser derivative; also called M1-189Sa) [M7_189S]", 176),
    ("Cys_M1_6S-Cys_M1_9S heterodimer (disulfide I:1-II:1, also called 6-9 dimer) peptide 1: CHPFSIKNVFSIWNFFSVY peptide 2: CPPRYNLFFLFRFYSSFRRDYLYF", 35),
]

Now for a further binder.
Req: Could you tell me which EC50, inhibition of CD40L-induced CD86 expression on primary B-cells is on file for Cys_M1_6S-Cys_M1_189S heterodimer (disulfide I:1-II:1, also called 6-189 dimer) peptide 1: CHPFSIKNVFSIWNFFSVY peptide 2: CLLLFFFSPPFSIFSFSLTTLS ?
Resp: 140
